Target: Tyrosine-protein phosphatase non-receptor type 22 (Homo sapiens)
Assay: PTPN22 lymphoid phosphatase activity blockers – biochemical, fluorescence intensity, uHTS (AID 1779);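 note: plate controls were vehicle with enzyme for no effect and no enzyme for full effect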
Conditions: recombinant LYP phosphatase, at 11.5 µM, stronger effect = higher value
About 160 (0.055%) of roughly 290,000 compounds were called active. This is one part of a sample in which actives are shown more often than they occur.
Give measured inhibition for each item. Keep answers brief.
The answer is to be given in %; state only the numeric part.

Query: Suppose we examine the compound CCC(C)NCCOCCOc1ccc(Cl)c(C)c1C (centres undefined) ; what inhibition value has been reported?
Reply: 76.9

Query: May I ask what inhibition has been recorded for Nc1nonc1-n1nnc(C(=O)N/N=C/c2ccoc2)c1CSc1ccc(Cl)cc1 ?
Reply: -6.9

Query: Item Cc1ccc(S(=O)(=O)c2nc(-c3ccccc3)oc2NCCN2CCOCC2)cc1 has what recorded inhibition?
Reply: 67.9

Query: Return reported inhibition; argument: Cc1ccc(OCC(O)CNS(=O)(=O)c2ccccc2C(=O)O)cc1 (centres undefined)
Reply: -4.9

Query: # get_value(readout='inhibition', item= NC(=O)c1nc(-c2cccs2)nc2c1[nH]c(=O)n2-c1ccc(F)cc1 )
Reply: -3.8

Query: Give its inhibition value. Item: COc1cc(C2SCC(=O)N2CCCN(C)C)cc(OC)c1OC (centres undefined)
Reply: -6.3

Query: Look up inhibition: C=CCN(CC=C)C(=S)NC(=O)/C=C/c1ccccc1
Reply: 2.6

Query: inhibition for COc1cccc(C(=O)NNC(=O)C(=O)N2CCCCC2)c1 ?
Reply: -8.5

Query: I would be grateful if you could share the reported inhibition for O=C(Nc1ccccc1C(=O)NCCc1ccccc1)c1ccco1 .
Reply: -1.8

Query: Tell me the measured inhibition of COc1ccc(NC(=O)CS(=O)CC(=O)NCC2OCCc3ccccc32)cc1 (centres undefined) , please.
Reply: -5.2

Query: Can you share its inhibition? I mean this compound: O=C(CCN1C(=O)C2CC=C(Cl)CC2C1=O)NCc1ccco1 (centres undefined)
Reply: 55.2

Query: So what's the measured inhibition for this one? Cc1c([N+](=O)[O-])cc(C(=O)NCc2ccc(F)cc2)cc1[N+](=O)[O-]
Reply: -4.5

Query: Give its inhibition value. Item: O=C(c1cc2cc(Cl)ccc2[nH]1)N1CCN(C(=O)c2ccco2)CC1
Reply: -9.3

Query: For the compound shown here, COCCCNc1nc2c(-c3ccc(C)cc3)nnn2c2ccccc12 , give the reported inhibition.
Reply: -6.1

Query: Report inhibition for O=C(NNC(=O)c1ccccc1)C(=O)N1CCCCC1 please.
Reply: 2.5

Query: Dear colleague, I am looking for the recorded inhibition of the following compound: C=CCN(CC=C)C(=S)NC(=O)/C=C/c1ccc(C)cc1
Reply: 65.4

Query: Which inhibition value is on record for Cc1ccccc1Cn1cc(NC(=O)c2cc(-c3ccco3)on2)cn1 ?
Reply: -0.1

Query: Look at this compound and give its reported inhibition. Cc1ccc(CN(CC(=O)NC(C)(C)C)C(=O)CNC(=O)c2cccs2)cc1
Reply: -5.3

Query: For O=C(O)CCC(=O)Nc1ccccc1C(=O)NCCc1ccccc1 , what is its reported inhibition?
Reply: 2.9

Query: Any idea what its inhibition is? The compound is COc1ccc(C2CC(c3cccs3)=NN2C(=O)CSc2nncn2C)cc1OC (centres undefined)
Reply: 7.7

Query: Entry O=C(CN1C(=O)NC2(CCc3ccccc3C2)C1=O)Nc1ccc(F)cc1 (centres undefined) : reported inhibition = ?
Reply: 2

Query: Suppose we examine the compound NC(=O)CC(NC(=O)Cc1ccc(Br)cc1)c1ccc(NC2CCC2)c([N+](=O)[O-])c1 (centres undefined) ; what inhibition value has been reported?
Reply: -1.3

Query: Give its inhibition value. Item: O=C(O)c1ccccc1NC(=O)c1cc(-c2ccccc2)nc2ccccc12
Reply: -12.6

Query: So what does the record say about inhibition for COc1cccc(C(=O)Nc2cccc(-c3ccc4nncn4n3)c2)c1OC ?
Reply: -0.4

Query: What inhibition value was documented for this compound, COC(=O)CCCC1=CC2=C(c3ccccc3)C(=O)C(C)(OC(=O)C3CCCC3)C(=O)C2=CN1CC1CC1 (centres undefined) ?
Reply: -6.7

Query: Query (compound): O=C(NNC(=O)c1cccc(Br)c1)C(=O)N1CCCCC1 ; field requested: inhibition
Reply: 60

Query: Can you share its inhibition? I mean this compound: CCOc1ccc(Cl)cc1/C=N/NC(=O)c1ccccc1
Reply: -4.5

Query: Could you share which inhibition value was measured for COC(=O)CCCC1=CC2=C(c3ccccc3)C(=O)C(C)(OC(=O)C3CCCC3)C(=O)C2=CN1CCN1CCOCC1 (centres undefined) ?
Reply: -3.1

Query: What does the data say about its inhibition? Entry: Cc1cc([N+](=O)[O-])ccc1NC(=O)CCC(=O)N1CCCCC1
Reply: -5.2

Query: Quick one: inhibition for COc1ccc2cc(C(C)c3nc4ccccc4c(=O)n3N)ccc2c1 (centres undefined) ?
Reply: 4.5

Query: Need inhibition, item CCCN1C(=O)C(O)(CC(=O)c2ccc3c(c2)OCCO3)c2ccccc21 (centres undefined)
Reply: 3.1

Query: Could you share which inhibition value was measured for Cn1cc(Cl)c(C(=O)Nc2cnn(Cc3ccc(F)cc3)c2)n1 ?
Reply: -1.2

Query: GET /values?readout=inhibition&item= COc1cccc(-c2onc3ccc(C(=O)/C=C/N(C)C)cc23)c1
Reply: 2.8

Query: Fill in the blank: the reported inhibition of NN1C(=O)/C(=C2/Sc3ccccc3N2CCCS(=O)(=O)O)SC1=S is ____.
Reply: -6.6
